target: hemagglutinin (HA) of influenza virus H3N2 A/Wisconsin/67/05 (influenza A virus); experiment: cell-based or functional assay
readout: average neutralization titer (nM)

{"binder": "MD2322 (VHH) EVQLVESGGGLVQPGGSLRLSCAVSISIFDIYAMDWYRQAPGKQRDLVATSFRDGSTNYADSVKGRFTISRDNAKNTLYLQMNSLKPEDTAVYLCHVSLYRDPLGVAGGMGVYWGKGALVTVSSGGGGSGGGGSEVQLVESGGGLVQPGGSLRLSCAVSISIFDIYAMDWYRQAPGKQRDLVATSFRDGSTNYADSVKGRFTISRDNAKNTLYLQMNSLKPEDTAVYLCHVSLYRDPLGVAGGMGVYWGKGALVTVSSGGGGSGGGGSEVQLVESGGGLVQPGGSLRLSCAVSISIFDIYAMDWYRQAPGKQRDLVATSFRDGSTNYADSVKGRFTISRDNAKNTLYLQMNSLKPEDTAVYLCHVSLYRDPLGVAGGMGVYWGKGALVTVSS", "readout": "average neutralization titer", "assay result": 7.3}
